Tested on: PBMCs
Test: CTG (CellTiter-Glo) viability assay in PBMCs
Assay type: cell-based
Conditions: Homo sapiens, PBMC, LPS and nigericin stimulated
pIC50: −log10 of the molar value.
Entries annotated with measured pIC50

Here's what some known entries look like.
Molecule: CN=S(=O)(NC(=O)Nc1c2c(cc3c1CCC3)CCC2)c1cnn2c1OCCC2 (stereo not drawn)
pIC50: < 5.00
//
Molecule: NS(=O)(=NC(=O)Nc1c2c(c(F)c3c1CCC3)CCC2)c1cnn2c1OCC2 (stereo not drawn)
pIC50: 5.00 to 6.00
//
Molecule: NS(=O)(=NC(=O)Nc1c2c(cc3c1CCC3)CCC2)c1cnn2c1OCCC2 (single isomer, unassigned) [drawing 661]
pIC50: > 7.00

Input CNC1COc2c(S(N)(=O)=NC(=O)Nc3c(C(C)C)cc(F)cc3C(C)C)cnn2C1 (single isomer, unassigned) [Example 27] . Output pIC50: < 5.00

Input NS(=O)(=NC(=O)Nc1c2c(c(F)c3c1CCC3)CCC2)c1cnn2c1OCCCC2 (racemic) [Example 30] . Output pIC50: < 5.00

Input CO[C@@H]1COc2c(S(=N)(=O)NC(=O)Nc3c(C(C)C)cc(F)cc3C(C)C)cnn2C1 (stereo partly drawn) [drawing 663] . Output pIC50: > 7.00

---

Entries annotated with measured IC50
Biological target: NLRP3 inflammasome (Homo sapiens, UniProt Q96P20)
Sequence (Q96P20 whole entry): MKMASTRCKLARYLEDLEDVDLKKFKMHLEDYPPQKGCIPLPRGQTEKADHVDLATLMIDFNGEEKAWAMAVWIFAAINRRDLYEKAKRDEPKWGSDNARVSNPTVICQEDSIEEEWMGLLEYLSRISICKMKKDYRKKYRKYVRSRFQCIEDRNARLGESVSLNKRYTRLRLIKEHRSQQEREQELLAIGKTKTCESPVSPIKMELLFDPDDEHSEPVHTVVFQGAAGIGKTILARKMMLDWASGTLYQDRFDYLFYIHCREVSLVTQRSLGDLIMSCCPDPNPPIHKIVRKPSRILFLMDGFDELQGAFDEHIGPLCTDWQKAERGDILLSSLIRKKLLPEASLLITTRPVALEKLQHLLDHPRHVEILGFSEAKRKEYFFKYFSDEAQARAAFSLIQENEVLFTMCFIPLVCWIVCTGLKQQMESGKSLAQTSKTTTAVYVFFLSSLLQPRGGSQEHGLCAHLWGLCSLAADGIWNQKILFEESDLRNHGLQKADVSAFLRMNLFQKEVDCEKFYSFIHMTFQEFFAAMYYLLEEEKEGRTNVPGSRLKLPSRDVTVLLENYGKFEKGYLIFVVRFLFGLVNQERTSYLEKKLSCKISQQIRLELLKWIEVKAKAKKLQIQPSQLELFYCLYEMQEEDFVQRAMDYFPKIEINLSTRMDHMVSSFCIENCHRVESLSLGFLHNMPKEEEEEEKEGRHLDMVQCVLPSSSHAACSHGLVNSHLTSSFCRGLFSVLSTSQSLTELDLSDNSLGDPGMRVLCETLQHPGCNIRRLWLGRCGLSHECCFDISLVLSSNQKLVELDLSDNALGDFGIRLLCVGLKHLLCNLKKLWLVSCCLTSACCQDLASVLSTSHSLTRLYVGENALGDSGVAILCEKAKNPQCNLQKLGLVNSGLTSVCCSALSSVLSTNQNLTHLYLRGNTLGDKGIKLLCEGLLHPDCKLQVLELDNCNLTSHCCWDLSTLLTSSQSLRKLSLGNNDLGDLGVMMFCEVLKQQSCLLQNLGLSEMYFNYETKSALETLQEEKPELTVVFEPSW
Experiment: NLRP3 inflammasome activation assay in PBMCs, IL-1β release (ELISA / HTRF)
Format: cell-based
Parameters: were freshly isolated from human peripheral blood from healthy donors; StemCells Technologies; host or cells: primary human PBMCs, LPS-primed, nigericin-stimulated
Conditions: LPS primed, 10 uM nigericin, read-out: PBMC IL-1 β IC50

Here's what some known entries look like.
Compound: NS(=O)(=NC(=O)Nc1c2c(cc3c1CCC3)CCC2)c1cnn2c1OCCC2 (single isomer, unassigned) [drawing 661]
IC50: < 100 nM
--
Compound: Cn1ccc(S(=O)(=NC(=O)Nc2c3c(cc4c2CCC4)CCC3)NCc2ccccc2)n1 (stereo not shown) [drawing 659]
IC50: > 10000 nM
--
Compound: CO[C@@H]1COc2c(S(=N)(=O)NC(=O)Nc3c4c(cc5c3CCC5)CCC4)cnn2C1 (stereo partly shown) [drawing 668]
IC50: < 100 nM
--
Compound: N=S(=O)(NC(=O)Nc1c2c(cc3c1CCC3)CCC2)c1cnn2c1OC[C@@H](NCCF)C2 (stereo partly shown)
IC50: < 100 nM

Input NS(=O)(=NC(=O)Nc1c2c(c(F)c3c1CCC3)CCC2)c1cnn2c1OCC2 (stereo not shown) . Output IC50: < 100 nM

Input CC(C)c1cc(F)cc(C(C)C)c1NC(=O)NS(=N)(=O)c1cnn2c1OCCC2 (stereo not shown) [drawing 651] . Output IC50: 100 to 1000 nM

Input CN(C)[C@@H]1COc2c(S(=N)(=O)NC(=O)Nc3c4c(cc5c3CCC5)CCC4)cnn2C1 (stereo partly shown) [drawing 681] . Output IC50: 100 to 1000 nM

Input NS(=O)(=NC(=O)Nc1c2c(c(F)c3c1CCC3)CCC2)c1cnn2c1OCCC2 (stereo not shown) . Output IC50: < 100 nM

---

Molecular target: NLRP3 inflammasome (Homo sapiens)
Assay: NLRP3 inflammasome activation assay in PBMCs, IL-1β release (ELISA / HTRF)
Assay type: cell-based
Design: were freshly isolated from human peripheral blood from healthy donors; StemCells Technologies; host or cells: primary human PBMCs, LPS-primed, nigericin-stimulated
Conditions: LPS primed, 10 uM nigericin, read-out: PBMC IL-1 β IC50
Entries annotated with measured IC50

Here's what some known entries look like.
Compound: CO[C@@H]1COc2c(S(=N)(=O)NC(=O)Nc3c(C(C)C)cc(F)cc3C(C)C)cnn2C1 (stereo partly shown) [drawing 671]
Value measured: 1000 to 10000 nM
--
Compound: CC1(C)COc2c(S(N)(=O)=NC(=O)Nc3c4c(cc5c3CCC5)CCC4)cnn2C1 (stereo not shown)
Value measured: < 100 nM
--
Compound: CO[C@@H]1COc2c(S(=N)(=O)NC(=O)Nc3c4c(cc5c3CCC5)CCC4)cnn2C1 (stereo partly shown) [drawing 650]
Value measured: < 100 nM
--
Compound: Cn1ccc(S(=N)(=O)NC(=O)Nc2c3c(cc4c2CCC4)CCC3)n1 (stereo not shown)
Value measured: 1000 to 10000 nM
--
Compound: CO[C@@H]1COc2c(S(=N)(=O)NC(=O)Nc3c4c(c(F)c5c3CCC5)CCC4)cnn2C1 (stereo partly shown) [drawing 679]
Value measured: 100 to 1000 nM
--
Compound: CO[C@@H]1COc2c(S(=N)(=O)NC(=O)Nc3c(C(C)C)cc(F)cc3C(C)C)cnn2C1 (stereo partly shown) [drawing 663]
Value measured: 100 to 1000 nM

Attention now turns to another entry.
The compound CN[C@@H]1COc2c(S(=N)(=O)NC(=O)Nc3c4c(cc5c3CCC5)CCC4)cnn2C1 (stereo partly shown) [drawing 673] , when measured on NLRP3 inflammasome (Homo sapiens), yielded IC50 of 100 to 1000 nM

---

Molecular target: NLRP3 inflammasome (Homo sapiens, UniProt Q96P20)
Test: THP-1 ASC-GFP speck assay
Assay type: cell-based
Parameters: host or cells: THP-1 ASC-GFP cells, PMA-differentiated, LPS-primed, nigericin-stimulated
Settings: THP-1 ASC-GFP cells, PMA differentiated, LPS primed, 10 μM nigericin; read-out: THP1 ASC Speck IC50
Method: THP-1 ASC-GFP cell line was purchased from Invivogen, San Diego, for inflammasome activation assay. THP-1 ASC-GFP cells stably express a 37.6 kDa ASC::GFP fusion protein that enables monitoring of spec formation by microscopy after activation of NLRP3 dependent inflammasome pathway. […] THP-1 ASC-GFP cells were imaged in 488 and Hoechst channels. […] Percentage of cells with a spec was calculated by dividing the number of GFP positive spots by total number of cells.
Metric: log10(IC50) (log10 of the value in µM)
Short version: log10 scale, IC50, µM.

Here's what some known entries look like.
Molecule: CC1(C)COc2c(S(N)(=O)=NC(=O)Nc3c4c(cc5c3CC(F)C5)CCC4)cnn2C1 (single isomer, unassigned) [Example 155]
Target or system: NLRP3 inflammasome (Homo sapiens, UniProt Q96P20)
Value measured: -2.10
//
Molecule: CNC1COc2c(S(N)(=O)=NC(=O)Nc3c4c(c(F)c5c3CCC5)CCC4)cnn2C1 (single isomer, unassigned) [Example 82]
Target or system: NLRP3 inflammasome (Homo sapiens, UniProt Q96P20)
Value measured: -0.57
//
Molecule: CNC1CCOc2c(S(N)(=O)=NC(=O)Nc3c4c(cc5c3CCC5)CCC4)cnn2C1 (single isomer, unassigned) [Example 109]
Target or system: NLRP3 inflammasome (Homo sapiens, UniProt Q96P20)
Value measured: 0.76
//
Molecule: NS(=O)(=NC(=O)Nc1c2c(c(F)c3c1CCC3)CCC2)c1cnn2c1OCC(NCCF)C2 (single isomer, unassigned)
Target or system: NLRP3 inflammasome (Homo sapiens, UniProt Q96P20)
Value measured: -1.09

Input CC1CCn2ncc(S(N)(=O)=NC(=O)Nc3c4c(cc5c3CCC5)CCC4)c2OC1 (single isomer, unassigned) [Example 75] . Output log10(IC50): 1.18

Input CNC1CCOc2c(S(N)(=O)=NC(=O)Nc3c4c(cc5c3CCC5)CCC4)cnn2C1 (single isomer, unassigned) [Example 105] . Output log10(IC50): 1.00

Input NS(=O)(=NC(=O)Nc1c2c(cc3c1CCC3)CCC2)c1cnn2c1C(F)(F)CCC2 (single isomer, unassigned) [Example 133] . Output log10(IC50): 0.45

---

Entries annotated with measured pIC50
Molecular target: NLRP3 inflammasome (Homo sapiens)
Experiment: NLRP3 inflammasome activation assay in PBMCs, IL-1β release (ELISA / HTRF)
Type: cell-based
Set-up: were freshly isolated from human peripheral blood from healthy donors; StemCells Technologies; host or cells: primary human PBMCs, LPS-primed, nigericin-stimulated
Conditions: LPS primed, 10 uM nigericin, read-out: PBMC IL-1 β IC50
pIC50: −log10 of the molar value.

Here's what some known entries look like.
Molecule: CN(C)[C@@H]1COc2c(S(=N)(=O)NC(=O)Nc3c4c(cc5c3CCC5)CCC4)cnn2C1 (some centres unmarked) [drawing 682]
pIC50: > 7.00
--
Molecule: CN[C@@H]1COc2c(S(=N)(=O)NC(=O)Nc3c(C(C)C)cc(F)cc3C(C)C)cnn2C1 (some centres unmarked)
pIC50: 6.00 to 7.00
--
Molecule: N=S(=O)(NC(=O)Nc1c2c(c(F)c3c1CCC3)CCC2)c1cnn2c1OCCC2 (single isomer, unassigned) [drawing 670]
pIC50: 5.00 to 6.00
--
Molecule: N=S(=O)(NC(=O)Nc1c2c(cc3c1CCC3)CCC2)c1cnn(CC2CC2)c1 (centres unmarked)
pIC50: 6.00 to 7.00
--
Molecule: NS(=O)(=NC(=O)Nc1c2c(c(C(=O)O)c3c1CCC3)CCC2)c1cnn2c1OCCC2 (centres unmarked)
pIC50: < 5.00
--
Molecule: CN[C@@H]1COc2c(S(=N)(=O)NC(=O)Nc3c4c(cc5c3CCC5)CCC4)cnn2C1 (some centres unmarked) [drawing 674]
pIC50: > 7.00
--
Molecule: NS(=O)(=NC(=O)Nc1c2c(c(F)c3c1CCC3)CCC2)c1cnn2c1OCCC2 (single isomer, unassigned) [drawing 669]
pIC50: > 7.00
--
Molecule: CN=S(=O)(NC(=O)Nc1c2c(cc3c1CCC3)CCC2)c1cnn2c1OCCC2 (centres unmarked)
pIC50: < 5.00

Input CN[C@@H]1COc2c(S(=N)(=O)NC(=O)Nc3c4c(cc5c3CCC5)CCC4)cnn2C1 (some centres unmarked) [drawing 665] . Output pIC50: > 7.00

Input N=S(=O)(NC(=O)Nc1c2c(cc3c1CCC3)CCC2)c1cnn2c1OCCC2 (single isomer, unassigned) [drawing 662] . Output pIC50: 5.00 to 6.00

Input CO[C@@H]1COc2c(S(=N)(=O)NC(=O)Nc3c4c(c(F)c5c3CCC5)CCC4)cnn2C1 (some centres unmarked) [drawing 680] . Output pIC50: > 7.00
